methodDescription: plasmodial surface anion channel blockers, osmotic lysis – cell-based, P. falciparum Indochina, OD700, 1 h, primary screen (AID 1154)
measurementParameters: P. falciparum Indochina infected RBC osmotic lysis, called active from +8 up or from −8 down
Calls of active or inactive are those of the source.
Select the correct class. Options are active, inactive and nothing else.

Recorded results for 5 compounds are shown here.
INSERT INTO measurements (compound, classname) VALUES
  ('CCCC[C@@H](O)C1=C(COC)C[C@H]2C(=O)N(Cc3ccccc3)C(=O)[C@H]2[C@H]1CO', 'inactive'),
  ('C=C[C@H]1C(C(=O)OCC)=CC[C@@H](c2ccccc2)N1S(=O)(=O)c1ccc(C)cc1', 'inactive'),
  ('[N-]=[N+]=Nc1ccccc1C[C@@]1(C(=O)NCCN2CCOCC2)N=C(c2ccc(OCCCO)cc2)O[C@@H]1c1ccccc1N=[N+]=[N-]', 'active'),
  ('C=CCC(OC(C)=O)[C@@H]1[C@@H](N(Cc2cccc3ccccc23)C(=O)Cc2ccc(F)cc2)c2cc(OCCCO)ccc2N1C(=O)c1ccc2ccccc2c1 (some centres undefined)', 'inactive'),
  ('C=CC[C@@]1(C(=O)NCCCOC)N=C(c2ccc(OCCCO)cc2)O[C@@H]1c1ccccc1N=[N+]=[N-]', 'active');

[Q] Would you mind telling me which call this test gave COC(=O)[C@@]1(Cc2ccc(OC)cc2)[C@H]2c3cc(C(=O)N4CCCC4)n(CCc4c[nH]c5ccc(OC)cc45)c3C[C@H]2CN1C(=O)c1ccccc1 ?
[A] inactive

[Q] Would you mind telling me which call this test gave COCCOC(=O)N1C(=O)[C@@]2(c3cc(C#CCNC(N)=O)ccc31)[C@H](C(N)=O)[C@H]1C(=O)O[C@H](c3ccccc3)[C@H](c3ccccc3)N1[C@@H]2c1ccccc1OCCO ?
[A] inactive

[Q] Would you mind telling me which call this test gave COCCOC(=O)N1C(=O)[C@@]2(c3cc(C#CCC(C(=O)OC)C(=O)OC)ccc31)[C@H](c1ccc(OCCO)cc1)N1[C@H](c3ccccc3)[C@H](c3ccccc3)OC(=O)[C@H]1[C@@H]2C(=O)N1CCc2cc(OC)c(OC)cc2C1 ?
[A] inactive

[Q] Would you mind telling me which call this test gave COc1ccc(C#Cc2ccc3c(c2)[C@]2(C(=O)N3)[C@H](c3ccc(OCCO)cc3)N3[C@H](c4ccccc4)[C@H](c4ccccc4)OC(=O)[C@H]3[C@@H]2C(=O)NC[C@H](O)c2ccccc2)cc1 ?
[A] inactive

###

methodDescription: small molecules captured by biotinylated probe aFSTL3 – biochemical, small-molecule microarray, fluorescence 635/667, stem cell growth factor project, primary screen (AID 1064);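 also: measures binding of the biotinylated anti-FSTL3 antibody to printed compounds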
measurementParameters: higher = more signal
Everything with composite z-score lower than -0.1 is N; everything else, including exactly -0.1, is Y.

Recorded results for 5 compounds are shown here.
INSERT INTO assay_data (compound, classname) VALUES
  ('CN(C)C(=O)[C@@]1(Cc2ccccc2)N=C(c2ccc(OCCCO)cc2)O[C@H]1c1ccccc1', 'Y'),
  ('C=CCC(OC(C)=O)[C@@H]1[C@@H](N(Cc2cccc3ccccc23)C(=O)Cc2ccc(F)cc2)c2cc(OCCCO)ccc2N1C(=O)c1ccc2ccccc2c1 (stereo partly specified)', 'Y'),
  ('CC1CC/C=C\[C@H]2OC34C=CCN(c5ccc(Cl)cc5)C(=O)[C@H]3N(C(C)CO)C(=O)[C@]4(C)C2C(=O)O1 (stereo partly specified)', 'Y'),
  ('C#Cc1cc2ccccc2oc1=O', 'Y'),
  ('CCCCC(CC)C(O)C1C=CC2C(=O)N(C)C(=O)C2N1Nc1ccccc1 (stereo unspecified)', 'N');

[Q] Item CCCC[C@@H]1C[C@H]1[C@@H](NC(=O)c1cccs1)c1ccccc1C(F)(F)F with composite z-score of -0.1 or above?
[A] Y

[Q] Item COc1ccc([Si](C)(C)[C@@H]2[C@@H](CCO)O[C@]3(C(=O)N(Cc4cccc(NC(=O)[C@H](C)O)c4)c4ccccc43)[C@H]2C)cc1 with composite z-score of -0.1 or above?
[A] N

[Q] Item COCCCNC(=O)[C@@]1(Sc2ccc(C)cc2)CC(=O)N(C2Cc3ccccc3C2)[C@@H]1c1ccc(CO)cc1 with composite z-score of -0.1 or above?
[A] Y

[Q] Item C=CC[C@]1(C(=O)N2CCOCC2)COC(c2ccc(OCCCO)cc2)=N1 with composite z-score of -0.1 or above?
[A] Y
